- test.description: In vivo pharmacokinetic determination
- condition.set: male, Sprague-Dawley, rat, in vivo, topical or ocular, 20 mg/kg
property: Tmax

## Input What does the record list as Tmax for O=c1c(-c2ccc(O)cc2)coc2cc(O)cc(O)c12 [genistein, 4′,5,7-trihydroxyisoflavone] ?
## Output 7.26 h

====

- test.description: In vivo pharmacokinetic determination
- condition.set: male, Sprague-Dawley, rat, in vivo, po, 20 mg/kg
property: Tmax (h)
Please respond with the number in h and leave the unit unwritten.

## Input What does the record list as Tmax for O=c1c(-c2ccc(O)cc2)coc2cc(O)cc(O)c12 [genistein, 4′,5,7-trihydroxyisoflavone] ?
## Output 3.67

====

- test.description: Solubility of genistein in different vehicles (shake flask, HPLC)
- Type: physicochemical
- condition.set: thermodynamic from solid, in Brij 30, room temperature; read-out: Solubility
property: solubility (mg/mL)
Please respond with the number in mg/mL and leave the unit unwritten.

## Input What does the record list as solubility for O=c1c(-c2ccc(O)cc2)coc2cc(O)cc(O)c12 [genistein, 4′,5,7-trihydroxyisoflavone] ?
## Output 27.7

====

- test.description: Solubility of genistein in different vehicles (shake flask, HPLC)
- Format: physicochemical
- condition.set: thermodynamic from solid, in Cremophor EL, room temperature; read-out: Solubility
property: solubility (mg/mL)
Please respond with the number in mg/mL and leave the unit unwritten.

## Input What does the record list as solubility for O=c1c(-c2ccc(O)cc2)coc2cc(O)cc(O)c12 [genistein, 4′,5,7-trihydroxyisoflavone] ?
## Output 19.4

====

- test.description: Solubility of genistein in different vehicles (shake flask, HPLC)
- Assay type: physicochemical
- condition.set: thermodynamic from solid, in Tween 80, room temperature; read-out: Solubility
property: solubility (mg/mL)
Please respond with the number in mg/mL and leave the unit unwritten.

## Input What does the record list as solubility for O=c1c(-c2ccc(O)cc2)coc2cc(O)cc(O)c12 [genistein, 4′,5,7-trihydroxyisoflavone] ?
## Output 19

====

- test.description: In vivo pharmacokinetic determination
- condition.set: male, Sprague-Dawley, rat, in vivo, po, 20 mg/kg, AUC0→ꝏ, rats, aqueous suspension, n = 3
property: AUC (µg·h/mL)
Please respond with the number in µg·h/mL and leave the unit unwritten.

## Input What does the record list as AUC for O=c1c(-c2ccc(O)cc2)coc2cc(O)cc(O)c12 [genistein, 4′,5,7-trihydroxyisoflavone] ?
## Output 33.9

====

- test.description: In vivo pharmacokinetic determination
- condition.set: male, Sprague-Dawley, rat, in vivo, po, 20 mg/kg
property: Cmax (ng/mL)
Please respond with the number in ng/mL and leave the unit unwritten.

## Input What does the record list as Cmax for O=c1c(-c2ccc(O)cc2)coc2cc(O)cc(O)c12 [genistein, 4′,5,7-trihydroxyisoflavone] ?
## Output 3120

====

- test.description: Solubility of genistein in different vehicles (shake flask, HPLC)
- Assay type: physicochemical
- condition.set: water, thermodynamic from solid, in Distilled water, room temperature; read-out: Solubility
property: solubility (µg/mL)
Please respond with the number in µg/mL and leave the unit unwritten.

## Input What does the record list as solubility for O=c1c(-c2ccc(O)cc2)coc2cc(O)cc(O)c12 [genistein, 4′,5,7-trihydroxyisoflavone] ?
## Output 10

====

- test.description: In vivo pharmacokinetic determination
- condition.set: male, Sprague-Dawley, rat, in vivo, po, 20 mg/kg
property: half-life (h)
Please respond with the number in h and leave the unit unwritten.

## Input What does the record list as half-life for O=c1c(-c2ccc(O)cc2)coc2cc(O)cc(O)c12 [genistein, 4′,5,7-trihydroxyisoflavone] ?
## Output 6.52

====

- test.description: Solubility of genistein in different vehicles (shake flask, HPLC)
- Type: physicochemical
- condition.set: microemulsion with PEG 400 concentration 0; read-out: Solubility in microemulsion
property: solubility (mg/mL)
Please respond with the number in mg/mL and leave the unit unwritten.

## Input What does the record list as solubility for O=c1c(-c2ccc(O)cc2)coc2cc(O)cc(O)c12 [genistein, 4′,5,7-trihydroxyisoflavone] ?
## Output 11.1

====

- test.description: Solubility of genistein in different vehicles (shake flask, HPLC)
- Assay type: physicochemical
- condition.set: oil or lipid, thermodynamic from solid, in Peceol, room temperature; read-out: Solubility
property: solubility

## Input What does the record list as solubility for O=c1c(-c2ccc(O)cc2)coc2cc(O)cc(O)c12 [genistein, 4′,5,7-trihydroxyisoflavone] ?
## Output 360 µg/mL

====

- test.description: Solubility of genistein in different vehicles (shake flask, HPLC)
- Format: physicochemical
- condition.set: in Distilled water, room temperature; read-out: Solubility
property: solubility

## Input What does the record list as solubility for O=c1c(-c2ccc(O)cc2)coc2cc(O)cc(O)c12 [genistein, 4′,5,7-trihydroxyisoflavone] ?
## Output ~10 µg/mL

====

- test.description: Solubility of genistein in different vehicles (shake flask, HPLC)
- Assay type: physicochemical
- condition.set: thermodynamic from solid, in Labrasol, room temperature; read-out: Solubility
property: solubility

## Input What does the record list as solubility for O=c1c(-c2ccc(O)cc2)coc2cc(O)cc(O)c12 [genistein, 4′,5,7-trihydroxyisoflavone] ?
## Output 55.5 mg/mL
